target: Hog Brain Phosphodiesterase (PDE); assay: Inhibition of c-AMP hydrolysis by hog brain phosphodiesterase (PDE); format: biochemical; details: Lineweaver-Burk plot slope and Dixon plot cross-point; read-out: Inhibition II: Inhibition Constant (Ki)
// returns false unless Ki is strictly below 50 µM, in which case true

Below, 3 molecules whose answers are already recorded.
molecule="CCCCCCCCCCCCNc1nc2c(N)ncnc2n1[C@@H]1O[C@@H]2COP(=O)(O)O[C@H]2[C@H]1O [8-CH3 (CH2)11 NH-c-AMP, 8-n-dodecylamino-c-AMP]" system="Hog Brain Phosphodiesterase (PDE)" class_label=false
molecule="CCCCCCCCCCCCCNc1nc2c(N)ncnc2n1[C@@H]1O[C@@H]2COP(=O)(O)O[C@H]2[C@H]1O [8-CH3 (CH2)12 NH-c-AMP, 8-n-tridecylamino-c-AMP]" system="Hog Brain Phosphodiesterase (PDE)" class_label=false
molecule="CCCCCCCNc1nc2c(N)ncnc2n1[C@@H]1O[C@@H]2COP(=O)(O)O[C@H]2[C@H]1O [8-CH3 (CH2)6 NH-c-AMP, 8-n-heptylamino-c-AMP]" system="Hog Brain Phosphodiesterase (PDE)" class_label=true

Quick check: does CCCCNc1nc2c(N)ncnc2n1[C@@H]1O[C@@H]2COP(=O)(O)O[C@H]2[C@H]1O [8-CH3 (CH2)3 NH-c-AMP, 8-n-butylamino-c-AMP] have Ki under 50 µM?
false

# strict comparison: is reported Ki < 50 µM? input = CNc1nc2c(N)ncnc2n1[C@@H]1O[C@@H]2COP(=O)(O)O[C@H]2[C@H]1O [8-CH3 NH-c-AMP, 8-methylamino-c-AMP, reference compound]
false

Given the entry CCCCCCCCCNc1nc2c(N)ncnc2n1[C@@H]1O[C@@H]2COP(=O)(O)O[C@H]2[C@H]1O [8-CH3 (CH2)8 NH-c-AMP, 8-n-nonylamino-c-AMP] , would its reported Ki be below 50 µM?
true

Please determine if CCCCCCCCCCSc1nc2c(N)ncnc2n1[C@@H]1O[C@@H]2COP(=O)(O)O[C@H]2[C@H]1O [8-CH3 (CH2)9 S-c-AMP, 8-n-decylmercapto-c-AMP] is below 50 µM in terms of Ki.
true

Strictly below 50 µM in Ki? CCCCCCCCSc1nc2c(N)ncnc2n1[C@@H]1O[C@@H]2COP(=O)(O)O[C@H]2[C@H]1O [8-CH3 (CH2)7 S-c-AMP, 8-n-octylmercapto-c-AMP]
true

For this molecule, is Ki lower than 50 µM? CCCCCCCCCCCCSc1nc2c(N)ncnc2n1[C@@H]1O[C@@H]2COP(=O)(O)O[C@H]2[C@H]1O [8-CH3 (CH2)11 S-c-AMP, 8-n-dodecylmercapto-c-AMP]
false

Is Ki of Nc1ncnc2c1nc(Br)n2[C@@H]1O[C@@H]2COP(=O)(O)O[C@H]2[C@H]1O [Example 8-Br-c-AMP, 8-bromo-c-AMP, reference compound] strictly below 50 µM?
false

For CCCCCNc1nc2c(N)ncnc2n1[C@@H]1O[C@@H]2COP(=O)(O)O[C@H]2[C@H]1O [8-CH3 (CH2)4 NH-c-AMP, 8-n-pentylamino-c-AMP] , is the recorded Ki below the cut-off of 50 µM?
false

###

tested on: CHO-Ki cells; assay: Reverse transformation of cultured CHO-Ki cells (c-AMP level elevation, membrane permeability by L.R.C.); format: cell-based, Chinese hamster; settings: 10^-3 mole/liter
RECORDED ENDPOINT: Toxic (remark at 10^-3 mole/liter)

molecule="CCCCCCCCCCCCNc1nc2c(N)ncnc2n1[C@@H]1O[C@@H]2COP(=O)(O)O[C@H]2[C@H]1O [8-CH3 (CH2)11 NH-c-AMP, 8-n-dodecylamino-c-AMP]" test_value=Toxic
molecule="CCCCCCCCCCCCCNc1nc2c(N)ncnc2n1[C@@H]1O[C@@H]2COP(=O)(O)O[C@H]2[C@H]1O [8-CH3 (CH2)12 NH-c-AMP, 8-n-tridecylamino-c-AMP]" test_value=Toxic
molecule="CCCCCCCCCCCSc1nc2c(N)ncnc2n1[C@@H]1O[C@@H]2COP(=O)(O)O[C@H]2[C@H]1O [8-CH3 (CH2)10 S-c-AMP, 8-n-undecylmercapto-c-AMP]" test_value=Toxic

Values were extracted from patent US4048307A.
